Collected TRZAWR preemergence herbicidal rating values appear next to each entry.
System: TRZAWR (Wheat, Winter, cv Riband)
Test: Preemergence herbicidal evaluation
Assay type: in vivo, Triticum aestivum
Details: Rate 0.1250 kg/ha; preemergence; rated 4-5 weeks after treatment
Please give the numeric answer without any surrounding text.

Please review the following examples before continuing.
COC(=O)COc1ccsc1-c1nsc2ccc(-n3c(=O)cc(C(F)(F)F)n(C)c3=O)cc12 [Compound 22] | 0.0
Cc1cc(C)c(-c2nsc3ccc(-n4c(=O)cc(C(F)(F)F)n(C)c4=O)cc23)s1 [Compound 27] | 2.0
COC(=O)C(C)Oc1ccsc1-c1nsc2ccc(-n3c(=O)cc(C(F)(F)F)n(C)c3=O)cc12 (stereo not shown) [Compound 23] | 0.0

# input # TRZAWR preemergence herbicidal rating lookup, item Cn1ccnc1-c1nsc2ccc(-n3c(=O)cc(C(F)(F)F)n(C)c3=O)cc12 [Compound 5]
# output 7.0

# input Okay, and C#CCOC(=O)COc1ccsc1-c1nsc2ccc(-n3c(=O)cc(C(F)(F)F)n(C)c3=O)cc12 [Compound 39] ?
# output 0.0

# input Okay, and Cn1c(C(F)(F)F)cc(=O)n(-c2ccc3snc(C4OCC(C)(C)CO4)c3c2)c1=O [Compound 36] ?
# output 9.0

# input Okay, and Cn1c(C(F)(F)F)cc(=O)n(-c2ccc3snc(C4OCCS4)c3c2)c1=O (stereo not shown) [Compound 31] ?
# output 8.0

# input Okay, and Cn1c(C(F)(F)F)cc(=O)n(-c2ccc3snc(-c4cccs4)c3c2)c1=O [Compound 3] ?
# output 5.0

# input Okay, and Cc1ccn(-c2nsc3ccc(-n4c(=O)cc(C(F)(F)F)n(C)c4=O)cc23)n1 [Compound 38] ?
# output 4.0

# input Okay, and Cn1c(C(F)(F)F)cc(=O)n(-c2ccc3snc(C4SCCN4C(=O)c4ccccc4)c3c2)c1=O (stereo not shown) [Compound 30] ?
# output 2.0

====

System: ECHORC (Echinochloa oryzoides)
Test: Flooded paddy, preemergence weed control
Assay type: in vivo, Echinochloa oryzoides (Ard.) Fritsch.
Details: rate 0.1250 kg/ha, rated 3-4 weeks after treatment, 0-9 rating scale
READOUT_NAME: herbicidal rating, ECHORC
Please give the numeric answer without any surrounding text.

Please review the following examples before continuing.
Cn1cccc1-c1nsc2ccc(-n3c(=O)cc(C(F)(F)F)n(C)c3=O)cc12 | 2.0
C[C@H]1O[C@@H]1c1nsc2ccc(-n3c(=O)cc(C(F)(F)F)n(C)c3=O)cc12 | 8.0
CCCC1COC(c2nsc3ccc(-n4c(=O)cc(C(F)(F)F)n(C)c4=O)cc23)O1 (stereo not drawn) | 9.0
CCOC(=O)C1CS[C@H](c2nsc3ccc(-n4c(=O)cc(C(F)(F)F)n(C)c4=O)cc23)N1 (stereo partly drawn) | 2.0
Cc1ccc(-c2nsc3ccc(N4C(=O)C5=C(CCCC5)C4=O)cc23)s1 | 7.0
CCOc1cc(OCC)nc(-c2nsc3ccc(-n4c(=O)cc(C(F)(F)F)n(C)c4=O)cc23)n1 | 9.0
CC1CC(C)(C)OC(c2nsc3ccc(-n4c(=O)cc(C(F)(F)F)n(C)c4=O)cc23)O1 (stereo not drawn) | 9.0
Cc1ccc(-c2nsc3ccc(-n4c(=O)cc(C(F)(F)F)n(C)c4=O)cc23)s1 | 9.0

Pending compound:
# input # herbicidal rating, ECHORC lookup, item "Cn1c(C(F)(F)F)cc(=O)n(-c2ccc3c(c2)C(c2cccc[n+]2[O-])=NS3(=O)=O)c1=O"
# output 0.0
